- Test system: K562 CRISPRi cells
- experiment notes: Perturb-seq pooled growth measurement (sgRNA counts, growth phenotype γ, relative activity)
- Assay type: cell-based, human
- test settings: γ relative to perfectly matched sgRNA (_00) of the same gene, day 5
recorded metric: relative_activity_day5

>  <substance>
GINS1_ −_25388381.23-P1P2_06 (guide GGACTAGAACGGAAGGAGTG; listed as DNA, chemistry not fully specified)

>  <test value>
0.9801

$$$$
>  <substance>
RPL9_ + _39460483.23-P1P2_05 (guide GGATGTTTCGGTGCTCGTGG; listed as DNA, chemistry not fully specified)

>  <test value>
0.5456

$$$$
>  <substance>
RAN_ + _131356438.23-P1P2_02 (guide GGCGGCCGCTGCGCTTAGGG; listed as DNA, chemistry not fully specified)

>  <test value>
1.173

$$$$
>  <substance>
DBR1_ + _137893744.23-P1P2_01 (guide GATTGCAGGAGTCTACACCC; listed as DNA, chemistry not fully specified)

>  <test value>
1.124

$$$$

Measured values drawn from patent US20220259593A1 for this set.
